Tested on: GM3 expression on the cell surface, B16 mouse melanoma cells
MEASUREMENT_DESCRIPTION: cell based phenotypic assay, cell surface GM3 by antibody mediated immunofluorescence, B16 (GM3 B16 IC50)
ASSAY_SETUP: Mus musculus, B16 mouse melanoma cells; 50% inhibition of GM3 expression on the cell surface; read-out: GM3 B16 IC50
pIC50: −log10 of the molar value.
pIC50 of 7 or higher: rule met. Under 7: rule not met.

The following compounds have reported results that may help.
compound="CC1(NC(=O)C2(F)CCN(c3nccc(COc4ccc(F)cc4)n3)CC2)CN2CCC1CC2 (stereo not shown)" category="rule met"
compound="COCCOCc1ccc(-c2nc(N3CCC(C(=O)NC4(C)CCN5CCC4CC5)CC3)ncc2F)cc1 (stereo not shown)" category="rule met"

## Task Quick check, pIC50 >= 7? O=C(NC1CN2CCC1CC2)N1CCN(c2ccc(-c3ccccc3)cc2)CC1 (stereo not shown)
## Result rule not met

## Task Quick check, pIC50 >= 7? CC(C)(NC(=O)NC1(C)CN2CCC1CC2)c1ccc(Oc2ccc(C(=O)N3CCOCC3)cc2)cc1 (stereo not shown)
## Result rule not met

## Task Quick check, pIC50 >= 7? CCC1(NC(=O)NC(C)(C)c2ccc(-c3ccc(OCCOC)cc3)cc2)CN2CCC1CC2 (stereo not shown)
## Result rule met

## Task Quick check, pIC50 >= 7? COC1(C(=O)NC2(C)CCN3CCC2CC3)CCN(c2nccc(-c3ccc(F)cc3)n2)CC1 (stereo not shown)
## Result rule met

## Task Quick check, pIC50 >= 7? CC(C)(NC(=O)OC1CCN2CCC1CC2)c1ccc(Oc2ccc(C(=O)N3CCCCC3)cc2)cc1 (stereo not shown)
## Result rule not met

## Task Quick check, pIC50 >= 7? COCCCOc1ccc(-c2cccc(C(C)(C)NC(=O)OC3CCN4CCC3CC4)c2)nn1 (stereo not shown)
## Result rule not met

## Task Quick check, pIC50 >= 7? CCC1(NC(=O)NC(C)(C)c2ccc(-c3ccc(COCCOC)cc3)cc2)CN2CCC1CC2 (stereo not shown)
## Result rule met

## Task Quick check, pIC50 >= 7? CC(C)(NC(=O)NC1(C)CCN2CCC1CC2)c1ccc(-c2ccc(C(=O)N3CCOCC3)cc2)cc1 (stereo not shown)
## Result rule not met

## Task Quick check, pIC50 >= 7? CC1CN(c2cccc(-c3ccccc3)c2)CCN1C(=O)NC1(C)CCN2CCC1CC2 (stereo not shown)
## Result rule not met

## Task Quick check, pIC50 >= 7? CC(C)(NC(=O)NC1(C)CN2CCC1CC2)c1ccc(-c2ccc(C(=O)N3CCOCC3)cc2)cc1 (stereo not shown)
## Result rule not met

====

TARGET_DESC: glucosylceramide synthase (Homo sapiens, UniProt Q16739)
Construct: Microsomes were isolated from A375 human melanoma cells; endogenous in cells
MEASUREMENT_DESCRIPTION: microsomal assay measuring conversion of ceramide to glucosylceramide by HPLC (GCS IC50)
ASSAY_SETUP: concentration causing 50% inhibition of glucosylceramide synthase activity
METRIC: pIC50
Give bare numbers, as −log10 of the molar value.

Consider the reported pIC50 for these compounds:
compound="CCC1(NC(=O)NC2(c3ccc(-c4ccc(COCCOC)cc4)cc3)CC2)CN2CCC1CC2 (single isomer, unassigned) [Example 208]" measured_result=5.57
compound="CC1(NC(=O)C2(F)CCN(c3cnc(Oc4ccc(F)cc4)cn3)CC2)CN2CCC1CC2 (stereo not shown)" measured_result=7.34
compound="COCCOc1ccc(-c2ccc(C3(NC(=O)NC4CN5CCC4CC5)CC3)cc2)cc1 (stereo not shown)" measured_result=7.55
compound="CC1(NC(=O)C2(O)CCN(c3nccc(-c4ccc(F)cc4)n3)CC2)CCN2CCC1CC2 (stereo not shown)" measured_result=8.65
compound="CC(C)(C)CCS(=O)(=O)c1ccc(C#CC(C)(C)NC(=O)NC2(C)CCN3CCC2CC3)cc1 (stereo not shown)" measured_result=8.92

Quick batch: pIC50 for everything below.
1. CC1(NC(=O)C2CCN(c3ncc(F)c(-c4ccc(F)cc4)n3)CC2)CCN2CCC1CC2 (stereo not shown)
2. CC(C)(NC(=O)OC1CCN2CCC1CC2)c1ccc(-c2ccc(C(=O)N3CCC(F)(F)CC3)cc2)cc1 (stereo not shown)
3. COCc1ccc(-c2ccnc(N3CCC(F)(C(=O)NC4(C)CN5CCC4CC5)CC3)n2)cc1 (stereo not shown)
4. CCC1(NC(=O)NC(C)(C)c2ccc(-c3ccc(C(=O)N4CC(F)(F)C4)cc3)cc2)CN2CCC1CC2 (stereo not shown)
5. CC1(NC(=O)N2CCN(c3ccccc3)CC2)CN2CCC1CC2 (stereo not shown)
6. CCC1(NC(=O)NC(C)(C)c2ccc(-c3ccc(COCCOC)cc3)cc2)CN2CCC1CC2 (stereo not shown)
7. CC1(NC(=O)C2CCN(c3nccc(-c4ccc(F)c(F)c4)n3)CC2)CCN2CCC1CC2 (stereo not shown)
8. COCCOc1ccc(-c2ccc(C(C)(C)NC(=O)OC3CCN4CCC3CC4)nc2)cc1 (stereo not shown) [Example 347]

## Result
1. 9.13
2. 8.03
3. 8.40
4. 7.12
5. 4.91
6. 7.83
7. 8.77
8. 7.43

====

TARGET_DESC: glucosylceramide synthase (Homo sapiens, UniProt Q16739)
Construct: Microsomes were isolated from A375 human melanoma cells; endogenous in cells
MEASUREMENT_DESCRIPTION: microsomal assay measuring conversion of ceramide to glucosylceramide by HPLC (GCS IC50)
ASSAY_SETUP: concentration causing 50% inhibition of glucosylceramide synthase activity
METRIC: IC50 (nM)
One number for each entry, in nM.

Quick batch: IC50 for everything below.
1. CNC(=O)c1ccc(Oc2ccc(C(C)(C)NC(=O)OC3CCN4CCC3CC4)cc2)cc1 (stereo not shown) [Example 292]
2. C[C@@H]1CN(C(=O)NC2(C)CCN3CCC2CC3)C[C@H](C)N1c1nccc(-c2ccccc2)n1 (relative stereo) [Example 147]
3. CC(C)(NC(=O)OC1CN2CCC1CC2)c1ccc(-c2ccc(CN3CCOCC3)cc2)cc1 (stereo not shown) [Example 229]
4. CC1(NC(=O)C2(F)CCN(c3nccc(-c4ccc(F)cc4)n3)CC2)CCN2CCC1CC2 (stereo not shown) [Example 94]
5. CC1(NC(=O)C2CCN(c3nccc(-c4ccc(F)cc4)n3)CC2)CCN2CCC1CC2 (single isomer, unassigned) [Example 43]
6. CC(C)(NC(=O)OC1CCN2CCC1CC2)c1ccc(Oc2ccc(C(=O)N3CCCCC3)cc2)cc1 (stereo not shown) [Example 299]
7. CN(C)C(=O)c1cccc(Oc2cccc(C(C)(C)NC(=O)NC3(C)CN4CCC3CC4)c2)c1 (stereo not shown) [Example 289]

## Result
1: 207; 2: 5.45; 3: 158; 4: 0.736; 5: 1.25; 6: 15.4; 7: 104

Quick batch: IC50 for everything below.
1. CC(C)(NC(=O)OC1CN2CCC1CC2)c1ccc(-c2ccc(OCCn3ccnn3)cc2)cc1 (stereo not shown) [Example 182]
2. O=C(OC1CCN2CCC1CC2)C1CCN(c2nccc(-c3ccc(F)cc3)n2)CC1 (stereo not shown) [Example 110]
3. CN(C(=O)C1CCN(c2nccc(-c3ccc(F)cc3)n2)CC1)C1CN2CCC1CC2 (stereo not shown) [Example 109]
4. CN(C)C(=O)c1ccc(-c2ccc(C(C)(C)NC(=O)N3CCN4CCC3CC4)cc2)cc1 [Example 260]
5. CC1(NC(=O)C2(F)CCN(c3ccc(Oc4ccc(F)cc4)nn3)CC2)CCN2CCC1CC2 (stereo not shown) [Example 134]
6. CC(C)(NC(=O)OC1CCN2CCC1CC2)c1ccc(Oc2ccc(C(=O)N3CCOCC3)cc2)cc1 (stereo not shown) [Example 282]

## Result
1: 43.1; 2: 1.22; 3: 40.1; 4: 8550; 5: 14.5; 6: 479

Quick batch: IC50 for everything below.
1. CC(C)(NC(=O)OC1CN2CCC1CC2)c1ccc(-c2ccc(CCO)cc2)cc1 (stereo not shown) [Example 226]
2. COCCOc1cnc(N2CCC(C(=O)NC3(C)CCN4CCC3CC4)CC2)nc1-c1ccc(F)cc1 (stereo not shown) [Example 104]
3. CC1(NC(=O)N2CCN(c3cccc(C4CCCCC4)c3)CC2)CCN2CCC1CC2 (stereo not shown) [Example 29]

## Result
1: 148; 2: 25.1; 3: 309

====

TARGET_DESC: glucosylceramide synthase (Homo sapiens, UniProt Q16739)
Construct: Microsomes were isolated from A375 human melanoma cells; endogenous in cells
Sequence (Q16739 1-394): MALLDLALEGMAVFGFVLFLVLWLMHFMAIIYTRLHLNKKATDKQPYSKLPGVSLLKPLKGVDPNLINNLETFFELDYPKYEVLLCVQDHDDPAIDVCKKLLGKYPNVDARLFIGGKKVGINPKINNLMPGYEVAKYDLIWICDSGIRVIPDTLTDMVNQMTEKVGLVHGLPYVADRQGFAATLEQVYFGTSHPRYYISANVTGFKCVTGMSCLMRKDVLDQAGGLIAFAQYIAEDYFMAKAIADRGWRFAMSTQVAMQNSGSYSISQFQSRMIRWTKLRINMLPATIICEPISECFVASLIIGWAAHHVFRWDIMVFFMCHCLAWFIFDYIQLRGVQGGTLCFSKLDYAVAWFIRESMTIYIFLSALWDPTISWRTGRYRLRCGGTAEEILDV
MEASUREMENT_DESCRIPTION: microsomal assay measuring conversion of ceramide to glucosylceramide by HPLC (GCS IC50)
ASSAY_SETUP: concentration causing 50% inhibition of glucosylceramide synthase activity
pIC50: −log10 of the molar value.
pIC50 of 7 or higher: condition met. Under 7: condition not met.

The following compounds have reported results that may help.
compound="CC1(NC(=O)C2CCN(c3nccc(-c4ccc(F)cc4)n3)CC2)CCN2CCC1CC2 (stereo not shown) [Example 41]" category="condition met"
compound="COCc1ccc(-c2nc(N3CCC(C(=O)NC4(C)CN5CCC4CC5)CC3)ncc2F)cc1 (stereo not shown)" category="condition met"
compound="CN(C)C(=O)c1ccc(Oc2ccc(C(C)(C)NC(=O)OC3CN4CCC3CC4)cc2)cc1 (stereo not shown) [Example 287]" category="condition not met"
compound="COCc1ccc(-c2ccnc(N3CCC(F)(C(=O)NC4(C)CCN5CCC4CC5)CC3)n2)cc1 (stereo not shown)" category="condition met"
compound="C[C@@H]1CN(C(=O)NC2(C)CCN3CCC2CC3)CCN1c1nccc(-c2ccccc2)n1 (single isomer, unassigned) [Example 137]" category="condition met"

## Task Quick check, pIC50 >= 7? CC(C)(NC(=O)OC1CN2CCC1CC2)c1ccc(-c2ccc(C(=O)N3CCCCC3)cc2)cc1 (stereo not shown)
## Result condition met

## Task Quick check, pIC50 >= 7? COCCOc1ccc(-c2nc(N3CCC(C(=O)NC4(C)CCN5CCC4CC5)CC3)ncc2F)cc1 (stereo not shown)
## Result condition met

## Task Quick check, pIC50 >= 7? COCCCOc1ccc(C#CC(C)(C)NC(=O)OC2CN3CCC2CC3)cc1 (stereo not shown)
## Result condition not met
